target: UniProt O60885
assay procedure: FRET assay, half maximal inhibitory concentration (IC50)
Format: binding
condition details: BRD4 protein 50 nM, Biotin-H4KAc4 peptide 12.5 nM; List of Classification
attribute measured: IC50

Example entries begin here.
Cc1cc(O)nc2ccc(NC(=O)c3cccnc3N3CCCC3CN(C)C)cc12 (stereo not shown) [Compound-121] :: < 200 nM
COc1cc2nc(O)cc(C)c2cc1NC(=O)c1cc(-c2cnn(C)c2)cnc1N1CCOCC1 :: < 200 nM
Cc1cc(O)nc2ccc(NC(=O)c3cc([N+](=O)[O-])cnc3N3CCCC3)cc12 :: 1000 to 10000 nM

Now look at this one.
Field IC50 (entry Cc1cc(O)nc2ccc(NC(=O)c3cc(CN4CCOCC4)ccc3N3CCCC3c3cc[nH]n3)cc12 (stereo not shown) ) reads 1000 to 10000 nM
